# Test system: Fibroblast
# Experimental Protocol: Multiplex assay against human fibroblast
# Format: toxicity, cell-based
# Test Settings: 48 h, 1 µM, compound concentration 1 uM, replicate 1
Mark Fulfilled only when Population Apoptotic (%) stays strictly below 70%. Values equal to the cut-off are Not fulfilled.

Look over these answered cases.
| Compound | Measured On | Answer Label |
| --- | --- | --- |
| CCc1nn(CCCN2CCN(c3cccc(Cl)c3)CC2)c(=O)n1CCOc1ccccc1.Cl [NEFAZODONE HYDROCHLORIDE] | Fibroblast | Fulfilled |
| O=c1cc(N2CCOCC2)oc2c(-c3cccc4c3sc3ccccc34)cccc12 | Fibroblast | Fulfilled |
| Cc1ccc(C)c(Oc2ccncc2C(=O)N2CCN(C3CC3)c3ccccc32)c1 | Fibroblast | Not fulfilled |
| CC(C)c1noc(N2CCC(COc3ccc(-c4ccc(S(C)(=O)=O)cc4)nc3)CC2)n1 [GSK-1292263] | Fibroblast | Fulfilled |
| C[C@]12CC[C@@H]3c4ccc(O)cc4CC[C@H]3[C@@H]1CC[C@@H]2O [ESTRADIOL] | Fibroblast | Not fulfilled |
| COc1ccccc1CN[C@H]1C2CCN(CC2)[C@H]1C(c1ccccc1)c1ccccc1 [CP-96345] | Fibroblast | Fulfilled |
| COc1ccc(-c2ccc3ncc4c(c3c2)n(-c2ccc(N3CCNCC3)c(C(F)(F)F)c2)c(=O)n4C)cn1.O=C(O)/C=C\C(=O)O [BGT-226] | Fibroblast | Not fulfilled |
| Cc1ccccc1C(c1ccccc1C)N1C2CCC1CC(O)(c1ccccc1)C2 (stereo not given) | Fibroblast | Fulfilled |
| CC(C)(C)NC[C@H](O)COc1nsnc1N1CCOCC1 [TIMOLOL] | Fibroblast | Fulfilled |
| CC(C)OC(=O)N1CCC(Oc2ncnc3c2cnn3-c2ccc(S(C)(=O)=O)cc2F)CC1 | Fibroblast | Not fulfilled |

Pending compound:
Query string: # TODO verify Population Apoptotic (%) < 70% strictly for this compound: CC1=C(C(=O)Nc2cc3cn[nH]c3cc2F)C(c2ccc(C(F)(F)F)cc2)CC(=O)N1 (stereo not given)
Result string: Fulfilled
